Assayed System: pooled human IgG (human); note: test concentration or dose not given here
Measurement Notes: cell-based or functional assay
Observed Property: Enzyme Activity Endpoint Assay (purified): scIgG (ng/µL)

Binder	Reported Value
PRT-202 (enzyme) MEVVEVWPYGQNPNGKTEILSQTEDSESLQRLRDIEDFQAEKKKQNVVYTKWLDGVDVKDHDFRKIVDGNIAYYATPLLNGRGFYDINKDFNRDSDKCAAAVAANMFHYWLDINRDNVDRFLRQNPEKHGIIELPDGQLKLSDFLNTYESDYGYRDKSKLFDFISNNFNGPVWTDKLLDNYINGYAYNYKYGRTIEDPTKNTSKINFFKKVFNEKILTNIHSIRNQNEFSDLLSEALYTGKAIGLSYGPAGLRHSLGHIISVWGADLDADGNVVAIYVTDSDDKKLTIGDERVGLKRYKISTDDEGRLRLTAYEETDNTGGEIRGLYTLDTGKQAWADYFDKTEQTGTDQAEQLEHHHHHH	553
